Each entry below carries its reported inhibition.
# Run Description: endothelial E-selectin expression blockers – imaging, HUVEC, immunofluorescence, MLSMR starter and 10KST1 sets, primary screen (AID 487);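 further: signal is fraction of cell area covered by stained E-selectin grains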
# Condition Description: HUVEC TNFalpha-induced E-selectin immunofluorescence imaging, at 2 µM; active compounds read high
Active and inactive are the calls of the source.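 How the source made its calls: active means visually confirmed hit in the image check and inhibition above 20%; inconclusive means visually confirmed hit but inhibition not above 20%; inactive means no visual hit in the image check.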

| Smiles Structure | inhibition |
| --- | --- |
| O=C(CCSc1nc(-c2ccco2)cc(C(F)(F)F)n1)NCCc1ccccc1 | 23.2% (inactive) |
| CCCCn1c(NCc2ccccc2O)nc2ccccc21 | -63% (inactive) |
| Cc1nn(-c2ccc(F)cc2)c2sc(C(=O)N3CCCCCC3)cc12 | -38.9% (inactive) |
| CN(CCCNC(=O)c1cn(C)c2ccc(S(=O)(=O)N(C)C)cc2c1=O)c1ccccc1 | 39.4% (inactive) |
| O=C(Nc1ccc2c(c1)OCO2)OCc1ccccc1 | 8.4% (inactive) |

Now let's try a different one.
Entry under review: `COC(=O)[C@H](C)NC(=O)NCc1ccc(F)cc1` . Reported inhibition? -131% (inactive)
